System: KM12 colon
experiment: NCI tumour cell line growth inhibition, 48 h; in the data active means GI50 below about 0.43 µM; inactive means the rest
Tick one outcome: 1 (yes) (active), 0 (no) (inactive)

# example entries with known answers
>  <sampleSmiles>
CCOC(=O)[C@@H](C)C[C@H](Cc1ccccc1)NC(=O)c1csc([C@@H](C[C@H](C(C)C)N(C)C(=O)[C@@H](NC(=O)[C@H]2CCCCN2C)C(C)(C)C)OC(C)=O)n1

>  <label>
1 (yes)

$$$$
>  <sampleSmiles>
Cc1ccc2/c(=C/c3ccc(N(C)C)cc3)c3cc(-c4ccccc4)[n+](C)n3c2c1

>  <label>
1 (yes)

$$$$
>  <sampleSmiles>
CN(C)c1nc(-c2cccs2)n2nc(-c3ccc(Cl)cc3)cc2n1

>  <label>
0 (no)

$$$$

Turning to the following molecule.
Q: Outcome logged for CCCCCC(=O)Oc1ccc(/C(=C(\C)c2ccc(OC)cc2)c2ccc(OCCN3CCCCC3)cc2)cc1 in this assay:
A: 0 (no)

====

System: RPMI-8226 leukemia
experiment: NCI tumour cell line growth inhibition, 48 h; in the data active = GI50 below about 0.43 µM; inactive = the rest
Give your call using only these classes: 1.0 = active, 0.0 = inactive

Please review the following examples before continuing.
>  <molecule>
CC(=O)[CH-]C(C)=O.CC(=O)[CH-]C(C)=O.N=CC=N.[Sn+2]

>  <label>
0.0

$$$$
>  <molecule>
CS(=O)(=O)Nc1ccc(-c2ccc3c(NC(=O)C4CC4)n[nH]c3c2)cc1

>  <label>
0.0

$$$$
>  <molecule>
CC(=O)n1c(-c2ccc(Cl)cc2)nc2c(c1=O)C(c1ccc(Cl)cc1)c1sc3c(Cl)cccc3c1O2 (centres undefined)

>  <label>
0.0

$$$$
>  <molecule>
C=C1C(=O)O[C@H]2[C@H]1CC/C(COC(=O)c1cc3cc(OC)ccc3[nH]1)=C\CC[C@@]1(C)O[C@@H]21

>  <label>
0.0

$$$$
>  <molecule>
Clc1ccc(OCc2nnc3n2N=C(c2ccc(Cl)cc2Cl)CS3)c(Cl)c1

>  <label>
0.0

$$$$
>  <molecule>
CCN(Cc1c(F)cccc1F)c1ccc(CO)c(Cl)c1

>  <label>
0.0

$$$$
>  <molecule>
C=CC(=O)Nc1cccc(Nc2nc(Nc3ccc(OCCOC)cc3)ncc2F)c1

>  <label>
0.0

$$$$
>  <molecule>
CCOC(=O)[C@@H](C)C[C@H](Cc1ccccc1)NC(=O)c1csc([C@@H](C[C@H](C(C)C)N(C)C(=O)[C@@H](NC(=O)[C@H]2CCCCN2C)C(C)(C)C)OC(C)=O)n1

>  <label>
1.0

$$$$

Q: Assay outcome for Oc1ccc(Cc2ccccc2)c2cccnc12 : what was it?
A: 0.0

====

Test system: RPMI-8226 leukemia
experiment: NCI tumour cell line growth inhibition, 48 h; in the data active = GI50 below about 0.43 µM; inactive = the rest
Log the outcome using a class from active, inactive

Q: Outcome logged for NC(N)=N/N=C/c1c(-c2ccccn2)nc2sc(Cl)cn12 in this assay:
A: inactive

Q: Hi team, can someone confirm the assay call for CNC(=O)c1cc(Oc2ccc(NC(=O)Nc3ccc(Cl)c(OC(F)(F)F)c3)c(F)c2)ccn1 ?
A: inactive

Q: Name the outcome recorded for COc1cc2c3c(n(CCCN4CCC(N)CC4)c(=O)c2cc1OC)-c1cc2c(cc1C3=O)OCO2 in the assay.
A: active

====

For each of the molecules below, state its TGI.
Test system: IGROV1 ovarian
experiment: NCI tumour cell line growth inhibition, 48 h

Examples from the recorded data:
>  <molecule>
O=C(c1ccccc1)[C@H]1Nc2cnccc2C2c3ccccc3CC21 (stereo partly drawn)

>  <targetSystem>
IGROV1 ovarian

>  <TGI>
> 58.6 µM

$$$$
>  <molecule>
CC(=O)[CH-]C(C)=O.CC(=O)[CH-]C(C)=O.N=CC=N.[Sn+2]

>  <targetSystem>
IGROV1 ovarian

>  <TGI>
22.4 µM

$$$$

For each listed entry, give its TGI.
1. CC[P+](C#Cc1ccccc1)(c1ccccc1)c1ccccc1
2. Cc1ncc(NC(=O)c2ccc(CN3CCN(C)CC3)c(C(F)(F)F)c2)cc1Nc1nccc(-c2cccnc2)n1
3. CC12CCC(C/C1=N\NC(N)=O)C2(C)C (stereo not drawn)
4. CC(O)(C(=O)N(O)c1ccc(Cl)cc1)c1ccc(Cl)cc1 (stereo not drawn)
5. CCOC(=O)c1c(NC(=S)Nc2ccc(C)cc2)sc2c1CCN(C)C2
6. C/C(=N\Nc1nc2ccccc2s1)c1cccnn1

A:
1. 11.9 µM
2. 24.4 µM
3. > 100 µM
4. > 100 µM
5. > 100 µM
6. 15.5 µM

Quick request: TGI for each listed item, please.
1. NC(=O)NC(=NCc1ccccc1)NCc1ccccc1
2. CCOC(=O)C1=C(C)NC(=O)N([N+](=O)[O-])C1c1ccccc1C(F)(F)F (stereo not drawn)
3. CC1=NC(C)(C)N(O)C1(C)C
4. COc1ccc(C2C(C#N)=C(N)OC3=C2CCCc2ccc(F)cc23)cc1OC (stereo not drawn)

A:
["> 100 µM", "> 100 µM", "> 100 µM", "46.3 µM"]

// for each molecule below, give its TGI
1. CCOC(=O)c1[nH]c2nc(SC)nc(NC)c2c1N
2. Oc1ccc(Cc2ccccc2)c2cccnc12
3. c1ccc([P+](Cc2csnn2)(c2ccccc2)c2ccccc2)cc1
4. COc1cc2c(cc1O)CC[n+]1cc3c(OC)c(OC)ccc3cc1-2
5. COC(=O)[C@H]1C=C[C@H](OC2OC(COC(C)=O)C(OC(C)=O)C(OC(C)=O)C2OC(C)=O)n2c(=O)n(-c3ccccc3)c(=O)n21 (stereo partly drawn)
6. O=C1CCn2c([nH]c3cccc4cccc2c43)=N1
7. CC1(C)OC(CCO)CN1C(=O)OCc1ccccc1 (stereo not drawn)
8. O=C(CN=C(CN(c1ccccc1)c1ccccc1)Oc1c(Cl)cc(Cl)cc1Cl)n1cnc2ccccc21

A:
> 100 µM
32.8 µM
> 100 µM
> 100 µM
18.4 µM
> 100 µM
> 100 µM
> 100 µM

Provide TGI for all items below, preserving their order.
1. CCc1cc(=O)n(/C(C)=C/c2ccccc2)n1C
2. COc1ccc(CCCCl)c(C2=NCCc3ccccc32)c1
3. Oc1c(Br)cc(CN(Cc2cc(Br)c(O)c(Br)c2)C2CCCCC2)cc1Br
4. COc1ccc(NC2=C(Br)C(=O)C(C)=C(C)C2=O)cc1
5. CC1(C)[C@@H]2C[C@H]1c1cnc(-c3ccccn3)cc1[C@H]2C(O)[C@@H]1c2cc(-c3ccccn3)ncc2[C@H]2C[C@@H]1C2(C)C (stereo partly drawn)
6. Cc1cc(C)nc(NS(=O)(=O)c2ccc(Nc3c4ccccc4nc4c(C(=O)N5CCN(CCOS(C)(=O)=O)CC5)ccc(Cl)c34)cc2)n1

A:
> 100 µM
> 100 µM
> 100 µM
3.39 µM
6.98 µM
> 100 µM

====

Tested on: K-562 leukemia
experiment: NCI tumour cell line growth inhibition, 48 h
measuredMetric: TGI

>  <molecule>
CC(=O)n1c(-c2ccc(Cl)cc2)nc2c(c1=O)C(c1ccc(Cl)cc1)c1sc3c(Cl)cccc3c1O2 (stereo not drawn)

>  <TGI>
2.32 µM

$$$$
>  <molecule>
COc1cc(/C=C/C(=N\NC(=O)c2ccccc2)c2sc(Nc3ccc(Cl)c(Cl)c3)nc2C)ccc1O

>  <TGI>
95.9 µM

$$$$
>  <molecule>
Cc1cccc(NC(Nc2cccc(C)c2)=C(C(Cl)=C(Cl)Cl)[N+](=O)[O-])c1

>  <TGI>
> 100 µM

$$$$
>  <molecule>
N#CC(C#N)=Cc1cccc(Oc2ccccc2)c1

>  <TGI>
> 95.4 µM

$$$$
>  <molecule>
C[C@H]1CCC/C=C/[C@@H]2C[C@H](N)C[C@H]2[C@H](O)/C=C/C(=O)O1

>  <TGI>
> 100 µM

$$$$
>  <molecule>
CC1=C(C)C(=O)O[C@@H]([C@](C)(O)[C@]2(O)CC[C@@]3(O)[C@@H]4C[C@H]5O[C@]56CC=CC(=O)[C@]6(C)[C@H]4CC[C@]23C)C1

>  <TGI>
> 27.8 µM

$$$$
>  <molecule>
O=C(O)c1cc2ccccc2c(S(=O)(=O)O)c1O

>  <TGI>
> 100 µM

$$$$

K-562 leukemia TGI of Cc1cc(C)nc(NS(=O)(=O)c2ccc(Nc3c4ccccc4nc4c(C(=O)N5CCN(CCOS(C)(=O)=O)CC5)ccc(Cl)c34)cc2)n1 is > 100 µM

====

Test system: SNB-19 CNS
experiment: NCI tumour cell line growth inhibition, 48 h; in the data active = GI50 below about 0.43 µM; inactive = the rest
Would you mind answering with one of these outcomes? active, inactive

>  <compound>
CN(C)CCNC(=O)Nc1c(C#N)[n+]([O-])c2cc(Cl)c(Cl)cc2[n+]1[O-]

>  <label>
inactive

$$$$

Q: Record lookup: outcome of this test for CCN(CCO)CCNc1ccc(C)c2sc3cc(Cl)ccc3c(=O)c12 ?
A: inactive

Q: Per the records of this test, what outcome belongs to Cc1c(C(=O)NN)nnn1-c1ccnc2c(C(F)(F)F)cccc12 ?
A: inactive

Q: How was Nc1nc(Nc2ccc(OCc3cccc(F)c3)cc2)c2c(n1)[nH]c1ccc(O)cc12 classified in this test?
A: inactive

Q: Just curious, what result did CNC(=O)c1cc(Oc2ccc(NC(=O)Nc3ccc(Cl)c(OC(F)(F)F)c3)c(F)c2)ccn1 get here?
A: inactive

Q: What was the test verdict on C=CCOc1c(Br)cc(Br)cc1Br ?
A: inactive

These measurements were taken from PubChem BioAssay (NCI).
